This listing pairs compounds with measured Activity.
- test_details: Antioxidant activity assessed as superoxide scavenging activity at 10 uM after 15 min by PMS/NADH-NBT assay
- Assay type: functional

substance_smiles	Activity
COc1ccc(-n2c(-c3ccccc3)nc(C)c2C)cc1	10.5%
COc1cc(OC)cc(-n2c(-c3ccc(F)cc3)nc(C)c2C)c1	21.9%
COc1cc(OC)cc(-n2c(-c3ccccc3)nc(C)c2C)c1	13.3%
COc1ccc(-n2c(-c3ccc(F)cc3)nc(C)c2C)cc1	38.1%
O=C1O[C@H]([C@@H](O)CO)C(O)=C1O	32.6%

---

- test_details: Antioxidant activity assessed as DPPH scavenging activity after 30 min by spectrophotometry
- Assay type: functional
reported_metric: IC50 (µg/mL)

substance_smiles	unit_of_measure	measured_value
COc1ccc(-n2c(-c3ccc(F)cc3)nc(C)c2C)cc1	µg/mL	3.46
COc1cc(OC)cc(-n2c(-c3ccc(F)cc3)nc(C)c2C)c1	µg/mL	3.98
O=C1O[C@H]([C@@H](O)CO)C(O)=C1O	µg/mL	3.1
COc1cc(OC)cc(-n2c(-c3ccccc3)nc(C)c2C)c1	µg/mL	3.8
COc1ccc(-n2c(-c3ccccc3)nc(C)c2C)cc1	µg/mL	3.64

---

This listing pairs molecules with measured Activity.
- test_details: Antioxidant activity assessed as superoxide scavenging activity at 40 uM after 15 min by PMS/NADH-NBT assay
- Type: functional
reported_metric: Activity (%)

molecule	measured_value
COc1ccc(-n2c(-c3ccccc3)nc(C)c2C)cc1	63.1
COc1cc(OC)cc(-n2c(-c3ccc(F)cc3)nc(C)c2C)c1	55.2
COc1ccc(-n2c(-c3ccc(F)cc3)nc(C)c2C)cc1	39
O=C1O[C@H]([C@@H](O)CO)C(O)=C1O [ASCORBIC ACID]	55.5
COc1cc(OC)cc(-n2c(-c3ccccc3)nc(C)c2C)c1	49.5

---

- test_details: Antioxidant activity assessed as hydroxyl radical scavenging activity at 40 uM after 60 min using thiobarbutaric acid by spectrophotometry
- Assay type: functional
reported_metric: Activity (%)

molecule	measured_value
COc1ccc(-n2c(-c3ccc(F)cc3)nc(C)c2C)cc1	43.7
COc1cc(OC)cc(-n2c(-c3ccccc3)nc(C)c2C)c1	47.1
COc1ccc(-n2c(-c3ccccc3)nc(C)c2C)cc1	43.7
O=C1O[C@H]([C@@H](O)CO)C(O)=C1O [ASCORBIC ACID]	48.6
COc1cc(OC)cc(-n2c(-c3ccc(F)cc3)nc(C)c2C)c1	47.1

---

- test_details: Antioxidant activity assessed as superoxide scavenging activity at 80 uM after 15 min by PMS/NADH-NBT assay
- Format: functional

compound	Activity / %
COc1cc(OC)cc(-n2c(-c3ccc(F)cc3)nc(C)c2C)c1	58.1
COc1ccc(-n2c(-c3ccc(F)cc3)nc(C)c2C)cc1	45.7
O=C1O[C@H]([C@@H](O)CO)C(O)=C1O [ASCORBIC ACID]	66.5
COc1cc(OC)cc(-n2c(-c3ccccc3)nc(C)c2C)c1	59
COc1ccc(-n2c(-c3ccccc3)nc(C)c2C)cc1	68.4

---

- test_details: Antioxidant activity assessed as superoxide scavenging activity at 20 uM after 15 min by PMS/NADH-NBT assay
- Format: functional
Criterion: Activity strictly under 30%. Met: 1 (yes). Not met: 0 (no).

compound	qualitative_label
COc1cc(OC)cc(-n2c(-c3ccc(F)cc3)nc(C)c2C)c1	1 (yes)
COc1cc(OC)cc(-n2c(-c3ccccc3)nc(C)c2C)c1	0 (no)
O=C1O[C@H]([C@@H](O)CO)C(O)=C1O [ASCORBIC ACID]	0 (no)
COc1ccc(-n2c(-c3ccccc3)nc(C)c2C)cc1	1 (yes)
COc1ccc(-n2c(-c3ccc(F)cc3)nc(C)c2C)cc1	0 (no)

---

- Test system: Candida
- test_details: Antimicrobial activity against Candida-6 after 24 hr
- Format: functional
- study_conditions: Candida, 6, 24 h

molecule	MIC, mg/L
COc1ccc(-n2c(-c3ccc(F)cc3)nc(C)c2C)cc1	25
C[C@@H]1[C@H](O)[C@@H](C)/C=C/C=C/C=C/C=C/C=C/C=C/C=C/[C@H](O[C@@H]2O[C@H](C)[C@@H](O)[C@H](N)[C@@H]2O)C[C@@H]2O[C@](O)(C[C@@H](O)C[C@@H](O)[C@H](O)CC[C@@H](O)C[C@@H](O)CC(=O)O[C@H]1C)C[C@H](O)[C@H]2C(=O)O [AMPHOTERICIN B]	12.5
COc1cc(OC)cc(-n2c(-c3ccc(F)cc3)nc(C)c2C)c1	50
COc1cc(OC)cc(-n2c(-c3ccccc3)nc(C)c2C)c1	25
COc1ccc(-n2c(-c3ccccc3)nc(C)c2C)cc1	25

---

This listing pairs compounds with measured MIC.
- System: Klebsiella pneumoniae
- test_details: Antimicrobial activity against Klebsiella pneumoniae after 24 hr
- Type: functional
reported_metric: MIC

compound	measured_value
O=C(O)c1cn(C2CC2)c2cc(N3CCNCC3)c(F)cc2c1=O [CIPROFLOXACIN]	100 µg/mL
COc1ccc(-n2c(-c3ccccc3)nc(C)c2C)cc1	100 µg/mL
COc1cc(OC)cc(-n2c(-c3ccc(F)cc3)nc(C)c2C)c1	100 µg/mL
COc1ccc(-n2c(-c3ccc(F)cc3)nc(C)c2C)cc1	50 µg/mL
COc1cc(OC)cc(-n2c(-c3ccccc3)nc(C)c2C)c1	100 µg/mL

---

- test_details: Antioxidant activity assessed as DPPH scavenging activity at 20 uM after 30 min by spectrophotometry
- Format: functional
This listing pairs compounds with measured Activity.
reported_metric: Activity (%)

compound	measured_value
COc1cc(OC)cc(-n2c(-c3ccccc3)nc(C)c2C)c1	20.2
COc1ccc(-n2c(-c3ccccc3)nc(C)c2C)cc1	28.3
O=C1O[C@H]([C@@H](O)CO)C(O)=C1O [ASCORBIC ACID]	34.5
COc1ccc(-n2c(-c3ccc(F)cc3)nc(C)c2C)cc1	20.2
COc1cc(OC)cc(-n2c(-c3ccc(F)cc3)nc(C)c2C)c1	19.2

---

This listing pairs compounds with measured IC50.
- test_details: Antioxidant activity assessed as hydroxyl radical scavenging activity after 60 min using thiobarbutaric acid by spectrophotometry
- Format: functional

substance_smiles	unit_of_measure	IC50
COc1cc(OC)cc(-n2c(-c3ccc(F)cc3)nc(C)c2C)c1	µg/mL	4.18
O=C1O[C@H]([C@@H](O)CO)C(O)=C1O	µg/mL	2.72
COc1ccc(-n2c(-c3ccccc3)nc(C)c2C)cc1	µg/mL	4.5
COc1cc(OC)cc(-n2c(-c3ccccc3)nc(C)c2C)c1	µg/mL	4.14
COc1ccc(-n2c(-c3ccc(F)cc3)nc(C)c2C)cc1	µg/mL	3.84
